# subject of test: Amine oxidase [copper-containing] 3 (Homo sapiens)
# Sequence (Q16853 whole entry): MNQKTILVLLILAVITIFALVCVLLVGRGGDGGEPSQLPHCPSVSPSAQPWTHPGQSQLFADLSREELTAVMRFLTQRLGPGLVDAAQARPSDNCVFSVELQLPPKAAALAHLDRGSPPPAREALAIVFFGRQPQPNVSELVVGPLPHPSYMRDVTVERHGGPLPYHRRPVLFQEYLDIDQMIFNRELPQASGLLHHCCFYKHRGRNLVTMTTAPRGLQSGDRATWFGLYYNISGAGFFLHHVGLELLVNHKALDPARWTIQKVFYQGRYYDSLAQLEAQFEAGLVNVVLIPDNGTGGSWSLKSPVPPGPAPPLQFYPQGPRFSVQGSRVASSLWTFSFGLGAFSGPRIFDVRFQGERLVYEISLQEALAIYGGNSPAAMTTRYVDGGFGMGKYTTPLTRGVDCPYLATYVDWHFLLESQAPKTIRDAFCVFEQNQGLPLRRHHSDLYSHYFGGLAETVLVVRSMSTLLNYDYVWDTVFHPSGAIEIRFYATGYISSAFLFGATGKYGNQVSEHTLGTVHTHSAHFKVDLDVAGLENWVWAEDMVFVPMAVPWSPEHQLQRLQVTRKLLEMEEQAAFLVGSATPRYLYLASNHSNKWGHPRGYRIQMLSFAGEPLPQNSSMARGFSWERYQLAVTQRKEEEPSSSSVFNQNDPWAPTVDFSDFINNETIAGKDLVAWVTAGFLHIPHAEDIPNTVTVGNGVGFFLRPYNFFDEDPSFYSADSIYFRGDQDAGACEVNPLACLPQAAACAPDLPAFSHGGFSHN
# test name: Inhibition of human recombinant VAP-1 transfected in CHO cells using 2,4-dichlorophenol/benzylamine as substrate incubated for 30 mins prior to benzylamine addition measured after 1 hr by spectrophotometry
Provide the recorded pIC50 for the entries that follow.
Remember the convention: pIC50 equals -log10 of concentration in molar.

Query: Consider the compound CC(C)Nc1cc(=O)n(-c2ccccc2)nc1-c1nc[nH]n1 . State its measured pIC50.
Reply: 6.54

Query: Consider the compound O=c1cc(NC2CCCCC2)c(-c2nc[nH]n2)nn1-c1ccccc1 . State its measured pIC50.
Reply: 7.15

Query: Consider the compound CN1CCN(c2ccc(Nc3cc(=O)n(-c4ccc(Cl)cc4)nc3-c3nc[nH]n3)cc2)CC1 . State its measured pIC50.
Reply: 7.70
